experiment.summary: Tmax in C57BL/6 mouse at 10 mg/kg, ip measured upto 24 hrs by LC-MS/MS analysis
Assay type: ADME, organism-based
setup.conditions: in vivo
property.name: Tmax (h)
Give the value, in units of h, as a plain number.

{"columns": ["smiles.entry", "Tmax, h"],
 "data": [
  ["CCCCCC[Si](C)(C)c1cc(OC)c([C@H]2C=C(CO)[C@H]3C[C@@H]2C3(C)C)c(OC)c1", 2]
]}

Could you now consider this next compound?
Item under review: "C=C(C)[C@@H]1CCC(C)=C[C@H]1c1c(O)cc([Si](C)(C)CCCCCC)cc1O" . Reported Tmax?
2
